- measurement target: T1, soluble human TLR3 extracellular domain (human, UniProt O15455 24-703)
- T1 construct: also called hTLR3 extracellular domain; extracellular domain of human TLR3
- measurement protocol: ELISA, coated soluble hTLR3 extracellular domain, HRP-labeled anti-human IgG
reported endpoint: EC50
Put down the number, then write its unit next to it.

binder	measured
human-adapted anti-TLR3 mAb HV5/LV1 (antibody, human IgG4, V domains shown, Human IgG4 (S228P, F234A, L235A), kappa; not shown: human kappa light chain constant region) VH: QVQLVQSGAEVKKPGASVKVSCKASGYTFTTYWIHWVRQATGQGLEWMGEINPNNGRINYNEKFKTRVTMTRNTSISTAYMELSSLRSEDTAVYYCARVGVMITTFPYWGQGTLVTVSS VL: DIQMTQSPSSLSASVGDRVTITCRASGNIHNYLAWYQQKPGKAPKLLIYNAKTLADGVPSRFSGSGSGTDFTLTISSLQPEDFATYYCQHFWSTPFTFGQGTKLEIK	0.0155 µg/mL

State recorded EC50 for all listed binders.
1. human-adapted anti-TLR3 mAb HV4/LV3 (antibody, human IgG4, V domains shown, Human IgG4 (S228P, F234A, L235A), kappa; not shown: human kappa light chain constant region) VH: QVQLVQSGAEVKKPGASVKVSCKASGYTFTTYWIHWVRQAPGQGLEWMGEINPNNGRINYNEKFKTRVTMTRDTSISTAYMELSRLRSDDTAVYYCARVGVMITTFPYWGQGTLVTVSS VL: DIQMTQSPSSLSASVGDRVTITCRASGNIHNYLAWYQQKPGKAPKRLIYNAKTLADGVPSRFSGSGSGTEFTLTISSLQPEDFATYYCQHFWSTPFTFGQGTKLEIK
2. human-adapted anti-TLR3 mAb HV1/LV5 (antibody, human IgG4, V domains shown, Human IgG4 (S228P, F234A, L235A), kappa; not shown: human kappa light chain constant region) VH: QVQLVQSGAEVKKPGASVKVSCKASGYTFTTYWIHWVRQAPGQRLEWMGEINPNNGRINYNEKFKTRVTITRDTSASTAYMELSSLRSEDTAVYYCARVGVMITTFPYWGQGTLVTVSS VL: DIQMTQSPSSLSASVGDRVTITCRASGNIHNYLAWYQQKPGKVPKLLIYNAKTLADGVPSRFSGSGSGTDFTLTISSLQPEDVATYYCQHFWSTPFTFGGGTKVEIK

Result:
0.0602 µg/mL
0.0277 µg/mL
